Where these numbers come from: ChEMBL document CHEMBL2331334

Reported values of selectivity ratio for individual entries
Test: Selectivity index, ratio of IC50 for mouse J774.1 cells to IC50 for amastigote stage of Trypanosoma cruzi Tulahuen C4
Format: toxicity
Details: read-out: Ratio IC50

"Cc1c(/C=N/NC(=O)c2ccc3c(c2)OCO3)no[n+]1[O-]" yielded selectivity ratio of < 1.5

"O=C(N/N=C/c1c(-c2ccccc2)no[n+]1[O-])c1ccncc1" yielded selectivity ratio of > 63

"Cc1c(C(=O)N/N=C/c2ccc(Br)cc2)no[n+]1[O-]" yielded selectivity ratio of < 5

----------
Experiment: Aqueous stability of the compound in acetate buffer at pH 5 at 1 mM after 24 hrs by spectrophotometric analysis
Format: physicochemical
Details: pH 5, 24 h, 1000 µM
QUANTITY KIND: Stability

For orientation, consider the following solved cases.
SMI: O=C(N/N=C/c1ccc2no[n+]([O-])c2c1)c1cccnc1
QUANTITY KIND: Stability
OBSERVED MEASUREMENT: Stable
--
SMI: Cc1c(/C=N/NC(=O)c2ccncc2)no[n+]1[O-]
QUANTITY KIND: Stability
OBSERVED MEASUREMENT: Stable
--
SMI: O=C(N/N=C/c1c(-c2ccccc2)no[n+]1[O-])c1ccc2c(c1)OCO2
QUANTITY KIND: Stability
OBSERVED MEASUREMENT: Stable
--
SMI: Cc1nc2ccccn2c1C(=O)N/N=C/c1c(-c2ccccc2)no[n+]1[O-]
QUANTITY KIND: Stability
OBSERVED MEASUREMENT: Stable
--
SMI: O=C(N/N=C/c1c(-c2ccccc2)no[n+]1[O-])c1ccncc1
QUANTITY KIND: Stability
OBSERVED MEASUREMENT: Stable

Now consider a different molecule.
"O=C(N/N=C/c1ccc2no[n+]([O-])c2c1)c1ccncc1" yielded Stability of Stable
